Reported area under dose-response curve values are given for each entry in this list.
System: DIPGX9 (diffuse intrinsic pontine glioma line)
Experiment notes: area under dose-response curve of % growth inhibition (log2 RLU vs DMSO / staurosporine), 1e-11 to 1e-4 M (% x log10 M); higher = more growth inhibition
Measurement name: area under dose-response curve

> print(dat)
                                   compound  number
1  CN(C)C/C=C/C(=O)Nc1ccc(C(=O)Nc2cccc(Nc3ncc(Cl)c(-c4c[nH]c5ccccc45)n3)c2)cc1     372
2  CCCS(=O)(=O)c1nc(NC2CC2)cc(-c2ccc3c(ccn3C3CC(C)(C)NC(C)(C)C3)c2)n1     152
3  CN1CCc2c(c3ccccc3n2Cc2ccc(C(=O)NO)cc2)C1    32.9
4  CC(C)[C@H]1C(=O)N[C@@H](CCCNC(=N)N)C(=O)NCC(=O)N[C@@H](CC(=O)O)C(=O)N[C@H](Cc2ccccc2)C(=O)N1C [CILENGITIDE]    8.99

====

System: SUDIPGXXI (diffuse intrinsic pontine glioma line)
Experiment notes: area under dose-response curve of % growth inhibition (log2 RLU vs DMSO / staurosporine), 1e-11 to 1e-4 M (% x log10 M); higher = more growth inhibition
Measurement name: area under dose-response curve

> print(dat)
                                   compound                measurement.name  number
1  Cc1noc2c1-c1ccccc1C(c1ccc(Cl)cc1)=N[C@H]2CC(N)=O [CPI-0610]  area under dose-response curve     251
2  CC(C)C[C@H](NC(=O)[C@H](Cc1ccccc1)NC(=O)c1cnccn1)B(O)O [BORTEZOMIB]  area under dose-response curve     634
3  Fc1ccc(-c2c3cccc(C(F)(F)F)c3nn2Cc2ccc(F)cc2Cl)cc1  area under dose-response curve     165
4  CCOC(=O)c1ccc(C#Cc2ccc3c(c2)C(C)(C)CCS3)nc1 [TAZAROTENE]  area under dose-response curve     230
5  Nc1ccccc1NC(=O)c1ccc(CNc2nccc(-c3cccnc3)n2)cc1 [MOCETINOSTAT]  area under dose-response curve     319

====

Tested on: DIPGX37 (H3.3 K27M diffuse intrinsic pontine glioma line)
Experiment notes: area under dose-response curve of % growth inhibition (log2 RLU vs DMSO / staurosporine), 1e-11 to 1e-4 M (% x log10 M); higher = more growth inhibition
Measurement name: area under dose-response curve

> print(dat)
                           structure.smiles  number
1  Cc1sc2c(c1C)C(c1ccc(Cl)cc1)=N[C@@H](CC(N)=O)c1nnc(C)n1-2    62.1
2        O=C(c1cncc(Br)c1)N1CCC(N2CCCC2)CC1    20.1
3  Cc1cn(CCN2CCN(c3ccccc3-c3cc(C#N)cc(C(=O)NCCCN4CCCC4)c3)CC2)c2ccccc12    92.2
4  CC[C@H](C)C(=O)O[C@H]1CCC=C2C=C[C@H](C)[C@H](CC[C@@H]3C[C@@H](O)CC(=O)O3)[C@H]21    41.4

====

Test system: DIPGX29 (H3.3 K27M diffuse intrinsic pontine glioma line)
Experiment notes: area under dose-response curve of % growth inhibition (log2 RLU vs DMSO / staurosporine), 1e-11 to 1e-4 M (% x log10 M); higher = more growth inhibition
Measurement name: area under dose-response curve

> print(dat)
                           structure.smiles                measurement.name  number
1  CCCCc1oc2ccc(NS(C)(=O)=O)cc2c1C(=O)c1ccc(OCCCN(CCCC)CCCC)cc1  area under dose-response curve     148
2  C=CCNC1=C2C[C@@H](C)C[C@H](OC)[C@H](O)[C@@H](C)/C=C(\C)[C@H](OC(N)=O)[C@@H](OC)/C=C\C=C(/C)C(=O)NC(=CC1=O)C2=O  area under dose-response curve     132
3  Fc1ccc(C(c2ccc(F)cc2)N2CCN(C/C=C/c3ccccc3)CC2)cc1  area under dose-response curve    61.5
4                  CNCCN1CCC(OCc2ccccc2)CC1  area under dose-response curve    19.1
